Value source: ChEMBL document CHEMBL3352338

# TARGET: Serine/threonine-protein kinase PAK 1 (Homo sapiens) (UniProt Q13153)
# Sequence (Q13153 whole entry): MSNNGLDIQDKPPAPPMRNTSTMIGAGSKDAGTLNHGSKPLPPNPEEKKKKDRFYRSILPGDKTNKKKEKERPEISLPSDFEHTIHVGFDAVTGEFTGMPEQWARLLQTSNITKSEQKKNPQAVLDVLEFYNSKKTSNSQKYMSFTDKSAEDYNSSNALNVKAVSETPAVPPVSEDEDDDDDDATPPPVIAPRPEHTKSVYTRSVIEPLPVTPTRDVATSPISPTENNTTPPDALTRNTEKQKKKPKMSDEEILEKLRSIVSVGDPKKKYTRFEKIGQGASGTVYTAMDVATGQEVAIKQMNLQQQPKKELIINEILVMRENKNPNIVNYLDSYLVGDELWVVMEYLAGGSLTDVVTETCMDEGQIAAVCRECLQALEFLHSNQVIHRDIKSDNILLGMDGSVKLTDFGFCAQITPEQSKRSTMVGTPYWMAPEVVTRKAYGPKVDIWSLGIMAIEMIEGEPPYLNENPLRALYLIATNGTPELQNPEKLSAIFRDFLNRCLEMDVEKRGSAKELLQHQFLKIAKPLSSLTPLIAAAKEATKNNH
# ASSAY TEXT: Inhibition of PAK1 (unknown origin) at 1 uM by KINOMEscanning assay relative to control; values are per cent of control
READOUT NAME: residual activity (%)

STRUCTURE SMILES STRING	VALUE
COc1ccc(-c2c[nH]c3ncc(-c4ccc(C(=O)N5CCOCC5)c(N)c4)cc23)cc1OC	87
COc1ccc(-c2cnc3[nH]cc(-c4ccc(OC)c(OC)c4)c3c2)cc1N	88
COc1cc(-c2c[nH]c3ncc(-c4cccc(N)c4)cc23)cc(OC)c1OC	89
COc1ccc(-c2cnc3[nH]cc(-c4ccc(OC)c(OC)c4)c3c2)cc1OC	85
COc1ccc(-c2c[nH]c3ncc(-c4cc(OC)c(OC)c(OC)c4)cc23)cc1OC	83

====

# TARGET: Mast/stem cell growth factor receptor Kit (Homo sapiens, UniProt P10721, D816V)
# Sequence (P10721 26-976 D816V limits assumed): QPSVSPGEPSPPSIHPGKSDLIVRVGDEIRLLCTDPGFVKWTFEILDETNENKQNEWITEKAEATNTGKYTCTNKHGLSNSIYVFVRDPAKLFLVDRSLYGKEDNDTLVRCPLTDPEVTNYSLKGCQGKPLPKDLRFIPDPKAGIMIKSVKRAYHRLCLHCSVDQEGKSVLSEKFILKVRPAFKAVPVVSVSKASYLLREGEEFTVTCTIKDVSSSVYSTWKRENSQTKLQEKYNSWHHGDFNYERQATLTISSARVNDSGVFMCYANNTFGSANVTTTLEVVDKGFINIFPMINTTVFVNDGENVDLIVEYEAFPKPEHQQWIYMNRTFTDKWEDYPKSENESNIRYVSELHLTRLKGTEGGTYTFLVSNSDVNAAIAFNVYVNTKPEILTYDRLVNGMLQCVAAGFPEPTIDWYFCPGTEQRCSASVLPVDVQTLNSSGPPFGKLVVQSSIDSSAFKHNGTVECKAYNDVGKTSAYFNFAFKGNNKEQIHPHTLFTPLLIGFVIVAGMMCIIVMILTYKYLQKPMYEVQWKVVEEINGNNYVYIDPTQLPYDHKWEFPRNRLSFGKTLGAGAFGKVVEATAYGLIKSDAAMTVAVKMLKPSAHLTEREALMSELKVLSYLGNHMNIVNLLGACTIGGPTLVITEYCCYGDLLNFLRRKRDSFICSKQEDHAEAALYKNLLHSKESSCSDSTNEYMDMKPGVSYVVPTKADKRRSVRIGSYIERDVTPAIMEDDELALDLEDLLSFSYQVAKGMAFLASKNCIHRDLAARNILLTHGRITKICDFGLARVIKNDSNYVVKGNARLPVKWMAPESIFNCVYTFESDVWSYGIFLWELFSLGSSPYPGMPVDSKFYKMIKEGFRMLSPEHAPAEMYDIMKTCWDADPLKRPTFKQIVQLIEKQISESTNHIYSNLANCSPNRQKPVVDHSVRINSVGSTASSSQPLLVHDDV
# ASSAY TEXT: Inhibition of c-KIT D816V mutant (unknown origin)
READOUT NAME: IC50 (nM)

# count of solved cases: 3
STRUCTURE SMILES STRING	VALUE
COc1ccc(-c2c[nH]c3ncc(-c4cccc(F)c4)cc23)cc1OC	520
COc1ccc(-c2c[nH]c3ncc(-c4cccc(C#N)c4)cc23)cc1OC	63.8
COc1ccc(-c2c[nH]c3ncc(-c4ccccc4)cc23)cc1OC	135

I. COc1ccc(-c2c[nH]c3ncc(-c4ccc(F)cc4)cc23)cc1OC
II. COc1ccc(-c2c[nH]c3ncc(-c4ccc5c(c4)OCO5)cc23)cc1OC
III. COc1ccc(-c2c[nH]c3ncc(-c4cncc(N)c4)cc23)cc1OC
IV. COc1ccc(-c2c[nH]c3ncc(-c4cccc(N(C)C)c4)cc23)cc1OC
input: Order the records so the highest IC50 appears first and the lowest last. Reply with the item labels sorted in the order that was asked for.
output: I, II, IV, III

a. COc1ccc(-c2cnc3[nH]cc(-c4ccc(OC)c(OC)c4)c3c2)c(OC)c1
b. COc1ccc(-c2c[nH]c3ncc(-c4cccc(NC(C)=O)c4)cc23)cc1OC
input: Between the two listed entries a and b , which has its IC50 at the higher number? Response format: the label of the selected entry.
output: b
(b: 65.1 nM, a: 29.2 nM)

====

# TARGET: Epidermal growth factor receptor (Homo sapiens) (UniProt P00533)
# ASSAY TEXT: Inhibition of EGFR (unknown origin) at 1 uM by KINOMEscanning assay relative to control; values are per cent of control
READOUT NAME: residual activity (%)

STRUCTURE SMILES STRING	residual activity, %
COc1cc(-c2c[nH]c3ncc(-c4cccc(N)c4)cc23)cc(OC)c1OC	70
COc1ccc(-c2cnc3[nH]cc(-c4ccc(OC)c(OC)c4)c3c2)cc1OC	70
COc1ccc(-c2c[nH]c3ncc(-c4ccc(C(=O)N5CCOCC5)c(N)c4)cc23)cc1OC	73

P. COc1ccc(-c2c[nH]c3ncc(-c4cc(OC)c(OC)c(OC)c4)cc23)cc1OC
Q. COc1ccc(-c2cnc3[nH]cc(-c4ccc(OC)c(OC)c4)c3c2)cc1N
input: Which has the smaller recorded residual activity, P or Q ? Response format: the label of the selected entry.
output: Q

====

# TARGET: 5'-AMP-activated protein kinase catalytic subunit alpha-1 (Homo sapiens) (UniProt Q13131)
# Sequence (Q13131 whole entry, looked up): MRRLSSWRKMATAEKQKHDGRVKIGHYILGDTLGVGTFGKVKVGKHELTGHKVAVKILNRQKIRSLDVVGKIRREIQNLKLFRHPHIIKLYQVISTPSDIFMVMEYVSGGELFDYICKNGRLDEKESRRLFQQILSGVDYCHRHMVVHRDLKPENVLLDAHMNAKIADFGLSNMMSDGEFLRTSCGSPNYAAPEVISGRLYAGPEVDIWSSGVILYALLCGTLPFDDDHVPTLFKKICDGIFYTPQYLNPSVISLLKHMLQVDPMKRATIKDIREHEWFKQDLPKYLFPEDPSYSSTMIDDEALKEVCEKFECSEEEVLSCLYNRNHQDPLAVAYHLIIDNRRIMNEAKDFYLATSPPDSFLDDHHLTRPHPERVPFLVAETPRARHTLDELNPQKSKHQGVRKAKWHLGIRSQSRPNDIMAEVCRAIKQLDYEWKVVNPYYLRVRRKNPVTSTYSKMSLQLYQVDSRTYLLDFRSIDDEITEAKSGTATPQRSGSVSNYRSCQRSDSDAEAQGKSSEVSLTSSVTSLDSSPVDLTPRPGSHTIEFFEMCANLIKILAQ
# ASSAY TEXT: Inhibition of AMPKalpha 1 (unknown origin) at 1 uM by KINOMEscanning assay relative to control; values are per cent of control
READOUT NAME: residual activity (%)

STRUCTURE SMILES STRING	VALUE
COc1ccc(-c2c[nH]c3ncc(-c4cc(OC)c(OC)c(OC)c4)cc23)cc1OC	95
COc1ccc(-c2c[nH]c3ncc(-c4ccc(C(=O)N5CCOCC5)c(N)c4)cc23)cc1OC	84
COc1ccc(-c2cnc3[nH]cc(-c4ccc(OC)c(OC)c4)c3c2)cc1OC	100
COc1ccc(-c2cnc3[nH]cc(-c4ccc(OC)c(OC)c4)c3c2)cc1N	98
COc1cc(-c2c[nH]c3ncc(-c4cccc(N)c4)cc23)cc(OC)c1OC	90

====

# TARGET: Focal adhesion kinase 1 (Homo sapiens)
# ASSAY TEXT: Inhibition of FAK (unknown origin) at 1 uM by KINOMEscanning assay relative to control; values are per cent of control
READOUT NAME: residual activity (%)

STRUCTURE SMILES STRING	READOUT NAME	VALUE
COc1ccc(-c2c[nH]c3ncc(-c4cc(OC)c(OC)c(OC)c4)cc23)cc1OC	residual activity	92
COc1ccc(-c2cnc3[nH]cc(-c4ccc(OC)c(OC)c4)c3c2)cc1N	residual activity	93
COc1cc(-c2c[nH]c3ncc(-c4cccc(N)c4)cc23)cc(OC)c1OC	residual activity	92
COc1ccc(-c2c[nH]c3ncc(-c4ccc(C(=O)N5CCOCC5)c(N)c4)cc23)cc1OC	residual activity	88
COc1ccc(-c2cnc3[nH]cc(-c4ccc(OC)c(OC)c4)c3c2)cc1OC	residual activity	88

====

# TARGET: Serine/threonine-protein kinase B-raf (Homo sapiens) (UniProt P15056)
# Sequence (P15056 whole entry): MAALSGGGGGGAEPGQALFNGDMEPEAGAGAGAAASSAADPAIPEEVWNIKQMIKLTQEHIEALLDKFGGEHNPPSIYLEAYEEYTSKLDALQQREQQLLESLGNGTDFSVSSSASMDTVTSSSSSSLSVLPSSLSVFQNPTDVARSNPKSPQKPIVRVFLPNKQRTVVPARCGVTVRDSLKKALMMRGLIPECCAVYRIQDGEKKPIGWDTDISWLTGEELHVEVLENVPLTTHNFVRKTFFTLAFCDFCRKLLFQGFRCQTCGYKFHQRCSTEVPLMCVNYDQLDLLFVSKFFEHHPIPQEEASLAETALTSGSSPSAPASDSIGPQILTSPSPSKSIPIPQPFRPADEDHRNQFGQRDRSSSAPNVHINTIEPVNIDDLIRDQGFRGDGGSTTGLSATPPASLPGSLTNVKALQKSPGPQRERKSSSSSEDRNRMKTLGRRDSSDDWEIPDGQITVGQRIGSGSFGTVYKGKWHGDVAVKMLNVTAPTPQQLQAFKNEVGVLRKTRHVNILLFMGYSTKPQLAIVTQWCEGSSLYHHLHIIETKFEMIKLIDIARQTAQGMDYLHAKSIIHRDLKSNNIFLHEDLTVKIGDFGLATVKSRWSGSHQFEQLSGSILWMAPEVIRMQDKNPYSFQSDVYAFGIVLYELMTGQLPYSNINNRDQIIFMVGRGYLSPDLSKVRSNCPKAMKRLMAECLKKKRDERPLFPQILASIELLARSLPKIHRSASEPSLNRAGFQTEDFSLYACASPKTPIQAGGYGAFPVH
# ASSAY TEXT: Inhibition of BRAF (unknown origin) at 1 uM by KINOMEscanning assay relative to control; values are per cent of control
READOUT NAME: residual activity (%)

STRUCTURE SMILES STRING	residual activity, %
COc1ccc(-c2c[nH]c3ncc(-c4ccc(C(=O)N5CCOCC5)c(N)c4)cc23)cc1OC	78
COc1ccc(-c2cnc3[nH]cc(-c4ccc(OC)c(OC)c4)c3c2)cc1OC	81
COc1ccc(-c2c[nH]c3ncc(-c4cc(OC)c(OC)c(OC)c4)cc23)cc1OC	78

I. COc1ccc(-c2cnc3[nH]cc(-c4ccc(OC)c(OC)c4)c3c2)cc1N
II. COc1cc(-c2c[nH]c3ncc(-c4cccc(N)c4)cc23)cc(OC)c1OC
input: Which has the smaller recorded residual activity, I or II ? Response format: the label of the selected entry.
output: II

====

# TARGET: Dual specificity mitogen-activated protein kinase kinase 2 (Homo sapiens)
# ASSAY TEXT: Inhibition of MEK2 (unknown origin) at 1 uM by KINOMEscanning assay relative to control; values are per cent of control
READOUT NAME: residual activity (%)

STRUCTURE SMILES STRING	residual activity [%]
COc1ccc(-c2cnc3[nH]cc(-c4ccc(OC)c(OC)c4)c3c2)cc1N	90
COc1ccc(-c2cnc3[nH]cc(-c4ccc(OC)c(OC)c4)c3c2)cc1OC	92
COc1ccc(-c2c[nH]c3ncc(-c4cc(OC)c(OC)c(OC)c4)cc23)cc1OC	93
COc1cc(-c2c[nH]c3ncc(-c4cccc(N)c4)cc23)cc(OC)c1OC	74
COc1ccc(-c2c[nH]c3ncc(-c4ccc(C(=O)N5CCOCC5)c(N)c4)cc23)cc1OC	72

====

# TARGET: Mast/stem cell growth factor receptor Kit (Homo sapiens)
# ASSAY TEXT: Inhibition of c-KIT (unknown origin) at 1 uM by KINOMEscanning/auto inhibition assay; values are per cent of control
READOUT NAME: residual activity (%)

# count of solved cases: 3
STRUCTURE SMILES STRING	READOUT NAME	VALUE
COc1cc(-c2c[nH]c3ncc(-c4cccc(N)c4)cc23)cc(OC)c1OC	residual activity	53
COc1ccc(-c2c[nH]c3ncc(-c4cc(OC)c(OC)c(OC)c4)cc23)cc1OC	residual activity	42
COc1ccc(-c2cnc3[nH]cc(-c4ccc(OC)c(OC)c4)c3c2)cc1N	residual activity	65

P. COc1ccc(-c2c[nH]c3ncc(-c4ccc(C(=O)N5CCOCC5)c(N)c4)cc23)cc1OC
Q. COc1ccc(-c2cnc3[nH]cc(-c4ccc(OC)c(OC)c4)c3c2)cc1OC
input: Between the two listed entries P and Q , which has its residual activity at the higher number? Response format: the label of the selected entry.
output: P

====

# TARGET: Fibroblast growth factor receptor 2 (Homo sapiens)
# ASSAY TEXT: Inhibition of FGFR2 (unknown origin) at 1 uM by KINOMEscanning assay relative to control; values are per cent of control
READOUT NAME: residual activity (%)

STRUCTURE SMILES STRING	VALUE
COc1cc(-c2c[nH]c3ncc(-c4cccc(N)c4)cc23)cc(OC)c1OC	100
COc1ccc(-c2c[nH]c3ncc(-c4cc(OC)c(OC)c(OC)c4)cc23)cc1OC	100
COc1ccc(-c2c[nH]c3ncc(-c4ccc(C(=O)N5CCOCC5)c(N)c4)cc23)cc1OC	89
COc1ccc(-c2cnc3[nH]cc(-c4ccc(OC)c(OC)c4)c3c2)cc1OC	100
COc1ccc(-c2cnc3[nH]cc(-c4ccc(OC)c(OC)c4)c3c2)cc1N	100

====

# Tested on: Hepatocyte growth factor receptor (Homo sapiens), P08581 [M1250T]
# Sequence (P08581 whole entry M1250T): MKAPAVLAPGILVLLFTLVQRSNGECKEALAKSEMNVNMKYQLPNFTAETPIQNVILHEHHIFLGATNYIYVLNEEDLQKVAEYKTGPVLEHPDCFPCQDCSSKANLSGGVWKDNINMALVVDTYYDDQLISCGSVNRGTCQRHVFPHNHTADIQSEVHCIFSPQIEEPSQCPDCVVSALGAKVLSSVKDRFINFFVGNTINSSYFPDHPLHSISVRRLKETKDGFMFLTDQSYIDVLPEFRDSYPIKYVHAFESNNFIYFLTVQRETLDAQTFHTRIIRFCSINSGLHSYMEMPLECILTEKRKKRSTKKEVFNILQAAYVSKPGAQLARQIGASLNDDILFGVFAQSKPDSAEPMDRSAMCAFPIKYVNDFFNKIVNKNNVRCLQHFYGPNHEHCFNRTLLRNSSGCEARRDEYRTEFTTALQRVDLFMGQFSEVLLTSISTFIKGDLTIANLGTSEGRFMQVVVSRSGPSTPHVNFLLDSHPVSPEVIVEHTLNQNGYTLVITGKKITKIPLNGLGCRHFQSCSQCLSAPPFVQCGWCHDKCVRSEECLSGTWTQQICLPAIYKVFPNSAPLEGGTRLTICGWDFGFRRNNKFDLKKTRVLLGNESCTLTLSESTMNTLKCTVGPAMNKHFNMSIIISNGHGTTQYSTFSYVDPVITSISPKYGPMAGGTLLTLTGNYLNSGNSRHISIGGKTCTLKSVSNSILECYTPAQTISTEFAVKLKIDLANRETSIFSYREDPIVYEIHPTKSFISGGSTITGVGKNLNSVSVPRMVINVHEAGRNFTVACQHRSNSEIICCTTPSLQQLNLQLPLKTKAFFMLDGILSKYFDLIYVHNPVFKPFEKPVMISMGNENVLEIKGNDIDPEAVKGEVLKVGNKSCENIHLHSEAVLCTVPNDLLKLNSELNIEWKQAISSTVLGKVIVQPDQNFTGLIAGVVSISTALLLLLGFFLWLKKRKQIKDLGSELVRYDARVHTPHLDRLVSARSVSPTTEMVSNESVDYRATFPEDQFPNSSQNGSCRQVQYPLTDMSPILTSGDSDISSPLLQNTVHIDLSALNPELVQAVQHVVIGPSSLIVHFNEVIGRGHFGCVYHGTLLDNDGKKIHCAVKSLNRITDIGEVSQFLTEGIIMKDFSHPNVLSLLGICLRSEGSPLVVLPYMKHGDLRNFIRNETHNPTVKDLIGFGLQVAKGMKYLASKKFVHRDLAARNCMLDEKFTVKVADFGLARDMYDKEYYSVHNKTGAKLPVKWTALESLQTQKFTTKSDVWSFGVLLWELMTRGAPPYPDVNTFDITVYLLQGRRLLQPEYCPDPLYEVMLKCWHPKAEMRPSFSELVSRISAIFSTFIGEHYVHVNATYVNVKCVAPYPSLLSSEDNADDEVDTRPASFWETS
# ASSAY TEXT: Inhibition of MET M1250T mutant (unknown origin) at 1 uM by KINOMEscanning assay relative to control; values are per cent of control
READOUT NAME: residual activity (%)

P. COc1ccc(-c2cnc3[nH]cc(-c4ccc(OC)c(OC)c4)c3c2)cc1OC
Q. COc1ccc(-c2c[nH]c3ncc(-c4cc(OC)c(OC)c(OC)c4)cc23)cc1OC
R. COc1ccc(-c2c[nH]c3ncc(-c4ccc(C(=O)N5CCOCC5)c(N)c4)cc23)cc1OC
input: List the 3 compounds shown above, ordered by increasing residual activity. Reply with the item labels sorted in the order that was asked for.
output: P, R, Q
(P: 35%, R: 53%, Q: 86%)

A. COc1cc(-c2c[nH]c3ncc(-c4cccc(N)c4)cc23)cc(OC)c1OC
B. COc1ccc(-c2cnc3[nH]cc(-c4ccc(OC)c(OC)c4)c3c2)cc1N
input: Between the two listed entries A and B , which has its residual activity at the higher number? Response format: the label of the selected entry.
output: A
